# System: Vero
# assay-info: cells
# Format: functional
# condition-description: Chlorocebus sabaeus
Active and inactive are the calls of the source.
Kindly supply the reported CC50 values for the records listed here.

Consider the reported CC50 for these molecules:
• O=C(Nc1ccc(Cl)cc1)/C(=C/c1cccc(O)c1)c1nc2ccccc2s1 = 2.37 µM (active)
• O=c1[nH]sc2cc(F)ccc12 = > 25 µM (active)
• O=C(/C=C/Sc1ccccc1)c1ccccc1 = 23.6 µM (active)

// query Recall the recorded CC50 for "CC1=NN(c2ccccc2)C(=O)/C1=C\C=C\c1ccccc1" with Vero and state it.
// result 12.1 µM (active)

* * *

# tested-target: Corticotropin-releasing factor receptor 2/Corticotropin-releasing factor-binding protein (Homo sapiens, UniProt P24387+Q13324)
# Sequence (Q13324 whole entry): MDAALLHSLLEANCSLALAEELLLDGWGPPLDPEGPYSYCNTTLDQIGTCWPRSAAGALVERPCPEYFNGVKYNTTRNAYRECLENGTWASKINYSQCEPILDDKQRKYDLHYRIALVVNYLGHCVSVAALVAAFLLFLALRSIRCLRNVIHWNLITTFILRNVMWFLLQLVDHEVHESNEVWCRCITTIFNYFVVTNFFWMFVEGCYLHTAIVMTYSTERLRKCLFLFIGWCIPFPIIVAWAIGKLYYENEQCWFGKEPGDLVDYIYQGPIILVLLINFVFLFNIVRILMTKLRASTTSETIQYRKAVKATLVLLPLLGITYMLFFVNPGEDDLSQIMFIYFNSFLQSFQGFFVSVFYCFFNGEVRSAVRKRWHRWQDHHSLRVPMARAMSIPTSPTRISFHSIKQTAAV
# Sequence (P24387 whole entry): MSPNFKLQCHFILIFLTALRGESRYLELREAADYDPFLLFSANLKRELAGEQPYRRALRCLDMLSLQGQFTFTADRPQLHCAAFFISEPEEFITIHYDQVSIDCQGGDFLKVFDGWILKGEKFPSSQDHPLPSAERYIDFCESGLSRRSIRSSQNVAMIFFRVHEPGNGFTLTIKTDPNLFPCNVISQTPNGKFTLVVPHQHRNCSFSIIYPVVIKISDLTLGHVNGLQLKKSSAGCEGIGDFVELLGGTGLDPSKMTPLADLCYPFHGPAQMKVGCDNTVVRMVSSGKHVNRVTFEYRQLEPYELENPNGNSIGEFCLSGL
# assay-info: activators of CRF receptor 2 with binding protein – uHTS hits, confirmation (AID 602473)
# Assay type: functional
# condition-description: read-out: EC50_Mean
Activity calls are given as the source filed them.
Pick one and only one: true (1) (active), false (0) (inactive)

• CCCN1CCc2c(sc(NC(=O)c3ccc(S(=O)(=O)N4CCN(C(=O)OCC)CC4)cc3)c2C(N)=O)C1 = true (1)
• CCCC1=Nc2nc(C)nn2C(c2cccnc2)/C1=C(\O)OCC (stereo not given) = false (0)
• COc1cc(S(=O)(=O)Nc2ccc(C)cc2)ccc1N/C=C1\C(=O)N(C)C(=O)C(C#N)=C1C = false (0)

// query Assay outcome for "CCOC(=O)C1(C(=O)OCC)CCN(S(=O)(=O)c2ccccc2)CC1" : what was it?
// result false (0)

// query Follow-up entry: COc1ccc(NC(=O)CN2CCC3(O)CCCCC3C2c2cc(OC)ccc2OC)cc1 (stereo not given)
// result false (0)

* * *

Provide the reported IC50 of each item.
# tested-target: Fatty acid synthase (Homo sapiens, UniProt P49327)
# Sequence (P49327 whole entry): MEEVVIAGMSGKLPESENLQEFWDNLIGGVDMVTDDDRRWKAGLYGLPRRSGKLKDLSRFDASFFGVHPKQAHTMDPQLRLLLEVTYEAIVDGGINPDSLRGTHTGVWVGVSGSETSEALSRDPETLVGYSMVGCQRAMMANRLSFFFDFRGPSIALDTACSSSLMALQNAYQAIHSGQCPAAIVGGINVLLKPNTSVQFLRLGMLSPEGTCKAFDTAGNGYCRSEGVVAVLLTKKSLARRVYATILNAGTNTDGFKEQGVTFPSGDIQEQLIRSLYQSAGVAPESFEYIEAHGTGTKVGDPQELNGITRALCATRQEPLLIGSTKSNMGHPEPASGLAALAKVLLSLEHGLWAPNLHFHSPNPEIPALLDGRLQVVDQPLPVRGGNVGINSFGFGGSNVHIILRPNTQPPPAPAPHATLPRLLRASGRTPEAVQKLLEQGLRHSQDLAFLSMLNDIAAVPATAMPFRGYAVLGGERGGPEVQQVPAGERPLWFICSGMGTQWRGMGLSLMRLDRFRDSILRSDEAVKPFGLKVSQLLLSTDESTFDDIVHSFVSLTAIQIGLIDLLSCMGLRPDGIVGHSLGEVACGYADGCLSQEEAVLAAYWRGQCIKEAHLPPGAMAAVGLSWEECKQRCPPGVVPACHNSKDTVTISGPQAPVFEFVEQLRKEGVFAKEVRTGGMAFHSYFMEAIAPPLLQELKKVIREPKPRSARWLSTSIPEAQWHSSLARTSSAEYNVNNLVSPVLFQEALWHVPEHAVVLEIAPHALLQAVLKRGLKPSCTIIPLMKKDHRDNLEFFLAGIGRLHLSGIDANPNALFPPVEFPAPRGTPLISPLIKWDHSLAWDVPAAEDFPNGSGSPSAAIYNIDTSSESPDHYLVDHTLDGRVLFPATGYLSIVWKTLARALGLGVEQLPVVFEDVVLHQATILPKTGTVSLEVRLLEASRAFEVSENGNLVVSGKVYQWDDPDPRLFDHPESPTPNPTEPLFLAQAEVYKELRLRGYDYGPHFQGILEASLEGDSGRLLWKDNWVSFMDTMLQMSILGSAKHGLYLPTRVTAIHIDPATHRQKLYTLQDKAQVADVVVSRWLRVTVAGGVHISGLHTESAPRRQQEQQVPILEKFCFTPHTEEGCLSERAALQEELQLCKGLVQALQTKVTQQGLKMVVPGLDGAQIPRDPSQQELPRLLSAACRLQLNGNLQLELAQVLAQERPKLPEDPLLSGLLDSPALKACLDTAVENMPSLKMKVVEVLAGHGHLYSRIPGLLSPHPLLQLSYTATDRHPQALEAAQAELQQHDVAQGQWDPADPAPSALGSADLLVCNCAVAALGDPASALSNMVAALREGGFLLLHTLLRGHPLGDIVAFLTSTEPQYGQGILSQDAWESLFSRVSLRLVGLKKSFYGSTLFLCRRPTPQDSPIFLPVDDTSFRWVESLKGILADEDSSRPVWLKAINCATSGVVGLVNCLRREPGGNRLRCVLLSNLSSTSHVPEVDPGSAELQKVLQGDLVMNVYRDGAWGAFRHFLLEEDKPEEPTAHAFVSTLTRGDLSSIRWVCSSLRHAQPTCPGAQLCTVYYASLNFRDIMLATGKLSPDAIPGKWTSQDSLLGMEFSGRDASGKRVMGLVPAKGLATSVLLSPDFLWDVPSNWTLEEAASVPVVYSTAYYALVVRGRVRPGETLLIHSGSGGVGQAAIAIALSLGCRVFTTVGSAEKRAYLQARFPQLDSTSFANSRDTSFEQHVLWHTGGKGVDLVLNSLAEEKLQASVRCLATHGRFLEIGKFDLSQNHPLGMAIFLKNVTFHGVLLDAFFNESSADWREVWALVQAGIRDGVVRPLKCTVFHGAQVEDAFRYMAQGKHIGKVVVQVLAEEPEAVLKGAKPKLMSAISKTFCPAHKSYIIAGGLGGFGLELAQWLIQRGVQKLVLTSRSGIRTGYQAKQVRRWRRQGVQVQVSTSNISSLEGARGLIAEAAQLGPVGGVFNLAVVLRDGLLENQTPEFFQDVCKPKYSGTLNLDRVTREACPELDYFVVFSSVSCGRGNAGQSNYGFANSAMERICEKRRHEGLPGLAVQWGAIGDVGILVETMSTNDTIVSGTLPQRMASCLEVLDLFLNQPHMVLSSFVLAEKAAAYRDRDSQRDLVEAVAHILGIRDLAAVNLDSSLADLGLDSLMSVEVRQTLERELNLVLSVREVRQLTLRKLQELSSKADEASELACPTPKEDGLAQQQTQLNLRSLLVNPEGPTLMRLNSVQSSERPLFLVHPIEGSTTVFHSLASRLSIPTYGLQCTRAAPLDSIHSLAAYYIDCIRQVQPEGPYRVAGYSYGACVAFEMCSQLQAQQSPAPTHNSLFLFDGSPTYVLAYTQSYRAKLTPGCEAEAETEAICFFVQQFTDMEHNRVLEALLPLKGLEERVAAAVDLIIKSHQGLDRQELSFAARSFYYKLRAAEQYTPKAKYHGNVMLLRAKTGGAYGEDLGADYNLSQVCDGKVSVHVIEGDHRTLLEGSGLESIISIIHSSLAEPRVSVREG
# assay-info: inhibition of human FAS-TE enzyme activity – biochemical, endpoint fluorescence intensity, uHTS hits, dose response (AID 624327);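 further: fluorescence from hydrolysis of an O-methyl fluorescein acyl ester substrate by the enzyme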
# Assay type: functional
Active and inactive are the calls of the source.

Consider the following illustrative entries.
- C/C(=N\Nc1ncc(Cl)cc1Cl)c1ccc(OC(F)F)cc1: 16.1 µM (active)
- O=C(COc1ccc([N+](=O)[O-])cc1)Nc1ccc2c(c1)CCC2: 14.6 µM (active)
- O=C(NCc1ccccc1)/C(=C/c1cccc([N+](=O)[O-])c1)NC(=O)c1ccco1: 4.49 µM (active)

# input for lookup
// query // map "CS(=O)(=O)N1CCc2cc(-c3csc(NC(=O)Cc4cccs4)n3)ccc21" to recorded IC50 (system: Fatty acid synthase (Homo sapiens, UniProt P49327))
// result 6.53 µM (active)

* * *

Hi there, I'd appreciate the recorded IC50 for every entry that follows.
# tested-target: Sentrin-specific protease 7 (Homo sapiens);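 further: Luminescence-based dose-response confirmation of ultra-high-throughput screening hits, measuring inhibition of SENP7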
# Sequence (Q9BQF6 whole entry): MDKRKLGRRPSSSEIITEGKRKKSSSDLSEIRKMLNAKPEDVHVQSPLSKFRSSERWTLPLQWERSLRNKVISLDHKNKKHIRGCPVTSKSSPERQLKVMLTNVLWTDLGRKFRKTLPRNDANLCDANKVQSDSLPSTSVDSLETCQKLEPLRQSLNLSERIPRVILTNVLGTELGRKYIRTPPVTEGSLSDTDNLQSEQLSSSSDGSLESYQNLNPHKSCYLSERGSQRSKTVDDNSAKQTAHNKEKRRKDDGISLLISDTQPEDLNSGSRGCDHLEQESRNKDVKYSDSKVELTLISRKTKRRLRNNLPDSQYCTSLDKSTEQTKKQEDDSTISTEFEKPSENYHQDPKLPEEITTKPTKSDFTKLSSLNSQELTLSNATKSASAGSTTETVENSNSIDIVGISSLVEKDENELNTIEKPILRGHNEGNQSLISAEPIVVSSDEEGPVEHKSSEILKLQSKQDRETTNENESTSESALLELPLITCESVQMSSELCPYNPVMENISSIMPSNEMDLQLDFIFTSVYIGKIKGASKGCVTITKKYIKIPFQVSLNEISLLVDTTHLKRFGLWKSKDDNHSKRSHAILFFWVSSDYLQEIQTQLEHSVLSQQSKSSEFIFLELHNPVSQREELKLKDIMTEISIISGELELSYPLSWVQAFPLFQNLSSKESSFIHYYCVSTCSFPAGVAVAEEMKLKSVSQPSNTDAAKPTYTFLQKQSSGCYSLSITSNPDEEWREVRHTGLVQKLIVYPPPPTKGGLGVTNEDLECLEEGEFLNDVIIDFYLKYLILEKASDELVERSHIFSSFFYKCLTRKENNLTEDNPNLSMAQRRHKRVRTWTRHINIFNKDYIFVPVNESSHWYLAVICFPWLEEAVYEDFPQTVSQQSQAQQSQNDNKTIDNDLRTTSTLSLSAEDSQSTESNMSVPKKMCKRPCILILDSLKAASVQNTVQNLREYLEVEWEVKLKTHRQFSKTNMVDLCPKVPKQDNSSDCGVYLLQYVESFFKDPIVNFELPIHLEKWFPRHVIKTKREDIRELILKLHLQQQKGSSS
# Format: functional
The source made the active and inactive calls.

• COc1ccc(NC(=O)c2cc3ccccc3cc2O)cc1 = 5.51 µM (active)

Quick one: give me IC50 for each item below, same order please.
1. O=C(CCl)Oc1ccc2occ(C(=O)c3cccs3)c2c1
2. CCC(C)n1c(NC(=O)c2ccccc2)c(C#N)c2nc3ccccc3nc21 (centres undefined)
3. CCCCc1ccc(NC(=O)Nc2cccnc2)cc1

// result
10.7 µM (active)
2.82 µM (active)
5.08 µM (active)

* * *

What AC50 was measured for each of the following?
# tested-target: DNA repair and recombination protein RAD54-like (Homo sapiens, UniProt Q92698)
# Sequence (Q92698 whole entry): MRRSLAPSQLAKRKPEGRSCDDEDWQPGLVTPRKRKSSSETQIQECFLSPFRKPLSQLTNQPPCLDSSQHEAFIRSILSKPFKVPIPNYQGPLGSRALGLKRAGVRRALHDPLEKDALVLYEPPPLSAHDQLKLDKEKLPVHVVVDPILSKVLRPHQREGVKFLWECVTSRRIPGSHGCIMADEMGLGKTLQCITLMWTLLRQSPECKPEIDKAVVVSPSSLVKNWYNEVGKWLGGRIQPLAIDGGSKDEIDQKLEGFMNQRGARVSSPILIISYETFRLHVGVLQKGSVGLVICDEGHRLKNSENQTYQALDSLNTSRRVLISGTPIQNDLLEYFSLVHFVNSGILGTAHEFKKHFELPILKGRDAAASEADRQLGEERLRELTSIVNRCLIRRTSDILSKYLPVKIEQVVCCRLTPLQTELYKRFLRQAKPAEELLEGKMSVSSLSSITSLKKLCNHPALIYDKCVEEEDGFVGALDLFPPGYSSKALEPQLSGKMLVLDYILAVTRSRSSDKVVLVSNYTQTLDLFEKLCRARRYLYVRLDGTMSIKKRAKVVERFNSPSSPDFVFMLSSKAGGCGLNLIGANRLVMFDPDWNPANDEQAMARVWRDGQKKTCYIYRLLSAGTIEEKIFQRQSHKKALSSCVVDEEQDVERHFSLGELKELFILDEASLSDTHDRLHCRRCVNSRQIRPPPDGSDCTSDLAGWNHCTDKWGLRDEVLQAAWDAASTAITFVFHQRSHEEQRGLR
# assay-info: RAD54 Holliday junction migration blockers – biochemical, fluorescence, cherry-picked samples, dose series, confirmation (AID 651657)
# Type: functional
Calls of active or inactive are those of the source.

Examples from the recorded data:
* CCN(CC)CCn1c2ccc(F)cc2c2nc(C)sc21 | 20.9 µM (active)
* CC(=O)Nc1sc2c(c1-c1nc3ccccc3s1)CN(C(C)C)CC2 | 0.715 µM (active)
* Cn1c2ccc(F)cc2c2ncn(CCCN(CCO)CCO)c(=O)c21 | 28 µM (active)
* CCN(CC)CCCNc1nc2cc(OC)c(OC)cc2c2nc(-c3cccnc3)nn12 | 2.15 µM (active)

Moving on to another compound below.
// query For "Cc1cc(C)c2c(N)c3ccccc3nc2n1" , what is its reported AC50?
// result 5.7 µM (active)
